Molecular target: Delta-type opioid receptor (Mus musculus)
Sequence (P32300 whole entry): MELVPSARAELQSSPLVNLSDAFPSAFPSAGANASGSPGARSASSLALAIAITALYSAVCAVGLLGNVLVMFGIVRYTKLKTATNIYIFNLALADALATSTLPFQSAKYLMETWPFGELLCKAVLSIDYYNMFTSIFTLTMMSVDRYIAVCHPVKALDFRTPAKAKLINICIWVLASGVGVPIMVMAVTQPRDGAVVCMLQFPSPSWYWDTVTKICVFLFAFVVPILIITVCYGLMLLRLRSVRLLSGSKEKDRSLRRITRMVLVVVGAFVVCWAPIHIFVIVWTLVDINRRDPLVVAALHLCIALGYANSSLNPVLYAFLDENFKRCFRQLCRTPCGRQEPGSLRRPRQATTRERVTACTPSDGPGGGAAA
Experiment: Inhibition of electrically evoked contractions in mouse vas deferens
Type: functional

>  <SMILES NOTATION>
CCCC[C@H](NC(=O)[C@H](CC(C)C)NC(=O)[C@H](Cc1cnc[nH]1)NC(=O)[C@H](Cc1ccccc1)NC(=O)[C@@H](CCCC)NC(=O)[C@@H](N)Cc1ccc(O)cc1)C(=O)N[C@@H](CC(=O)O)C(N)=O

>  <IC50 [pM]>
712

$$$$

----------
Target: Mu-type opioid receptor (Rattus norvegicus)
Sequence (P33535 whole entry): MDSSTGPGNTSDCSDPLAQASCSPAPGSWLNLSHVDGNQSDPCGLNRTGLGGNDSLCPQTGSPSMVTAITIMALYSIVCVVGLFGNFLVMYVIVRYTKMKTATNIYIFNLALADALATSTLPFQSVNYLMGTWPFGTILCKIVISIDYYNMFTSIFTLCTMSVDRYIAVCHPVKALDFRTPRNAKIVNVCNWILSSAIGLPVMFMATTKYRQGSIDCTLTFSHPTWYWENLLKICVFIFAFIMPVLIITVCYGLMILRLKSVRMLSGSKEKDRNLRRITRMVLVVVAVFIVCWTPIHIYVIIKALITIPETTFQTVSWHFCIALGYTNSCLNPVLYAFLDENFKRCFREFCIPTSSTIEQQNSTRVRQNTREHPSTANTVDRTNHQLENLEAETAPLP
Assay: Inhibition of [3H]- ]DAMGO binding to mu receptor from rat brain membrane
Listing: Ki of selected compounds

>  <COMPOUND>
CSCC[C@H](NC(=O)[C@H](CC(C)C)NC(=O)[C@H](Cc1cnc[nH]1)NC(=O)[C@H](Cc1ccccc1)NC(=O)[C@@H](CCSC)NC(=O)[C@@H](N)Cc1ccc(O)cc1)C(=O)N[C@@H](CC(=O)O)C(N)=O (stereo in doubt; 12) [DELTORPHIN A]

>  <ASSAYED TARGET>
Mu-type opioid receptor (Rattus norvegicus)

>  <UOM>
nM

>  <Ki>
415

$$$$
>  <COMPOUND>
CC(C)[C@H](NC(=O)[C@@H]1CCC(=O)NCCCC[C@@H](NC(=O)[C@@H](N)Cc2ccc(O)cc2)C(=O)N[C@@H](Cc2ccccc2)C(=O)N1)C(=O)N[C@H](C(=O)NCC(N)=O)C(C)C

>  <ASSAYED TARGET>
Mu-type opioid receptor (Rattus norvegicus)

>  <UOM>
nM

>  <Ki>
17.5

$$$$

----------
Biological target: Delta-type opioid receptor (Rattus norvegicus)
Sequence (P33533 whole entry): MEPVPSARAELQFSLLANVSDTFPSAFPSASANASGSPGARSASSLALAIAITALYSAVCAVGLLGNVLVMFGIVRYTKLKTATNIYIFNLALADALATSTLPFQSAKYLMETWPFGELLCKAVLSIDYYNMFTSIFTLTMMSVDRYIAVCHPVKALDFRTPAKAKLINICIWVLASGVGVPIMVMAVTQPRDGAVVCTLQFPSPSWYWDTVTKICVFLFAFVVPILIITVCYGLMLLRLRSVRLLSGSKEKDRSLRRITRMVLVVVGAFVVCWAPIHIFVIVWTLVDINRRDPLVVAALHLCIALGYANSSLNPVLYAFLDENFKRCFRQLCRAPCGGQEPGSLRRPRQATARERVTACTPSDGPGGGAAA
Assay: Inhibition of [3H]- ]DSLET binding to delta receptor from rat brain membrane
Positions of bridges follow the written chain, without caps; N, C: chain ends. Residues, ends and D or L forms follow the SMILES beside them.
Label satisfied when Ki is strictly below 0.2 µM; otherwise label not satisfied.

>  <MOLECULE>
CSCC[C@H](NC(=O)[C@H](CC(C)C)NC(=O)[C@H](Cc1cnc[nH]1)NC(=O)[C@H](Cc1ccccc1)NC(=O)[C@@H](CCSC)NC(=O)[C@@H](N)Cc1ccc(O)cc1)C(=O)N[C@@H](CC(=O)O)C(N)=O (stereo in doubt; 12) [DELTORPHIN A]

>  <CATEGORY>
satisfied

$$$$
>  <MOLECULE>
CC(C)[C@@H]1NC(=O)[C@@H](NC(=O)[C@H](Cc2ccccc2)NC(=O)[C@@H](C)NC(=O)[C@@H](N)Cc2ccc(O)cc2)CC(=O)NCCC[C@@H](C(N)=O)NC(=O)[C@H](C(C)C)NC1=O

>  <CATEGORY>
not satisfied

$$$$
>  <MOLECULE>
CC(C)[C@@H]1NC(=O)[C@@H](NC(=O)[C@H](Cc2ccccc2)NC(=O)CNC(=O)[C@@H](N)Cc2ccc(O)cc2)CCC(=O)NCCCC[C@@H](C(N)=O)NC(=O)[C@H](C(C)C)NC1=O (H-YGFEVVK-NH2; lactam 4-7)

>  <CATEGORY>
not satisfied

$$$$
>  <MOLECULE>
CCCC[C@H](NC(=O)[C@H](CC(C)C)NC(=O)[C@H](Cc1cnc[nH]1)NC(=O)[C@H](Cc1ccccc1)NC(=O)[C@@H](CCCC)NC(=O)[C@@H](N)Cc1ccc(O)cc1)C(=O)N[C@@H](CC(=O)O)C(N)=O

>  <CATEGORY>
satisfied

$$$$
>  <MOLECULE>
CSCC[C@H](NC(=O)[C@H](CC(C)C)NC(=O)[C@H](Cc1cnc[nH]1)NC(=O)[C@H](Cc1ccccc1)NC(=O)[C@@H](CCSC)NC(=O)[C@@H](N)Cc1ccc(O)cc1)C(=O)N[C@@H](CC(=O)O)C(N)=O (stereo in doubt; 7) [DELTORPHIN A]

>  <CATEGORY>
not satisfied

$$$$
>  <MOLECULE>
CC(C)[C@@H]1NC(=O)[C@H](CC(=O)O)NC(=O)[C@H](Cc2ccccc2)NC(=O)[C@H](NC(=O)[C@@H](N)Cc2ccc(O)cc2)CCCCNC(=O)CC[C@@H](C(N)=O)NC(=O)[C@H](C(C)C)NC1=O

>  <CATEGORY>
not satisfied

$$$$
>  <MOLECULE>
CC(C)[C@H](NC(=O)[C@@H]1CCC(=O)NCCCC[C@@H](NC(=O)[C@@H](N)Cc2ccc(O)cc2)C(=O)N[C@@H](Cc2ccccc2)C(=O)N1)C(=O)N[C@H](C(=O)NCC(N)=O)C(C)C

>  <CATEGORY>
satisfied

$$$$
